Reference source for all entries: patent US20110178062A1

experimental target: human H3 receptor (Homo sapiens)
Construct: expressed in transfected cells; host or cells: SK-N-MC cells
Sequence (Q9Y5N1 whole entry): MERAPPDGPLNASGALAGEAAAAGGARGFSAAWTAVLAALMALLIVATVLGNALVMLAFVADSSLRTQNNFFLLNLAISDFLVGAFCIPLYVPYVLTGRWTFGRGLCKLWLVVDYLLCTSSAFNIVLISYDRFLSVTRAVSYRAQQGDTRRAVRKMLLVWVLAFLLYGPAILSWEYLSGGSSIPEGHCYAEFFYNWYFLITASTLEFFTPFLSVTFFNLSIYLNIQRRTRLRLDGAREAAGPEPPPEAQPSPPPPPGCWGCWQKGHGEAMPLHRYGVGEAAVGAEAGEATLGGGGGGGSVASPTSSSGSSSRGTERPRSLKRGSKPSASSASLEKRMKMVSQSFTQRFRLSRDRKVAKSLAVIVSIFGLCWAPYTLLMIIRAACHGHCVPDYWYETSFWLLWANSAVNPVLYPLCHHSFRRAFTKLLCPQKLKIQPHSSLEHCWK
experiment: Cyclic AMP Accumulation, SK-N-MC reporter cells (human H3)
Type: cell-based
conditions used: SK-N-MC cells expressing reporter construct and human H3 receptor; read-out: Human pA2 (converted)
I'd appreciate it if you could supply Kb values for the items below.

Here is how some molecules turned out for Kb.
{"columns": ["molecule", "measurement"],
 "data": [
  ["CC(C)N1CCN(C(=O)c2ccc3c(CN4CCCC(CO)C4)c[nH]c3c2)CC1 (centres unmarked)", "1.07 nM"],
  ["O=C(c1ccc2c(CN3CCOCC3)c[nH]c2c1)N1CCN(C2CCC2)CC1", "0.155 nM"],
  ["CC(C)N1CCN(C(=O)c2ccc3c(CN4CCOCC4)c[nH]c3c2)CC1", "0.234 nM"],
  ["CC(C)N1CCN(C(=O)c2cccc3c(CN4CCOCC4)c[nH]c23)CC1", "8.13 nM"]
]}

Measured Kb of Cn1cc(CN2CCOCC2)c2ccc(C(=O)N3CCN(C4CCC4)CC3)cc21 : 0.501 nM

====

I'd appreciate it if you could supply Ki values for the items below.
experimental target: cloned human H3 receptors, stably expressed in SK-N-MC cells (Homo sapiens, UniProt Q9Y5N1)
Construct: expressed in transfected cells; host or cells: SK-N-MC cells
Sequence (Q9Y5N1 whole entry): as above
experiment: H3 Receptor Binding (Human)
conditions used: average of the results obtained

Here is how some compounds turned out for Ki.
{"columns": ["compound", "Ki"],
 "data": [
  ["O=C(c1ccc2c(CN3CCC(N4CCCCC4)CC3)c[nH]c2c1)N1CCC(CO)CC1 [Example 79]", "62 nM"],
  ["O=C(c1ccc2c(CN3CCC(N4CCCCC4)CC3)c[nH]c2c1)N1CCC(Cc2ccccc2)CC1 [Example 106]", "70 nM"],
  ["O=C(c1ccc2c(CN3CCCN(C4CCC4)CC3)c[nH]c2c1)N1CCC(Cc2ccccc2)CC1 [Example 108]", "16 nM"]
]}

Moving on to the next compound.
Measured Ki of O=C(c1ccc2c(CN3CCN(C4CCC4)CC3)c[nH]c2c1)N1CCC(c2ccccc2)CC1 [Example 43] : 8 nM
